molecular target: JAK2 (catalytic domain, His-tag) (Homo sapiens); construct: All four purified enzymes contain only the catalytic domain; His (N); purchased Carna Biosciences, Inc; host or cells: baculovirus expression system; test: JAK kinase assay (HTRF, phosphorylation of TK substrate-biotin), JAK2; type: biochemical; details: ATP at Km (4 μM); read-out: JAK2 kinase inhibitory activity (EC50 indicator)
Sequence (O60674 849-1124 limits assumed): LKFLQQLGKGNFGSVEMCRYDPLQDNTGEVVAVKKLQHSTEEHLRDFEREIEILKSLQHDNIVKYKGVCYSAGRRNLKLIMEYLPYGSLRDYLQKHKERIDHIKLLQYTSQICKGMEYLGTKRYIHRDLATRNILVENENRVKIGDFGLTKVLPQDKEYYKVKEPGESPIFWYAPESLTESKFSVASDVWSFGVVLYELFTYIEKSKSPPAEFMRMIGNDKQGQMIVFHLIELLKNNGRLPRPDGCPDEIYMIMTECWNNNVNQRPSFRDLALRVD
testReadout: EC50

Solved cases below.
O=C(N1CCN(c2ncnc3[nH]ccc23)CC12CC2)C1(c2ccccc2)CC1; < 100 nM
O=C(C1CCCO1)N1CCN(c2ncnc3[nH]ccc23)CC12CC2 (stereo not shown); < 100 nM
N#Cc1cccc(C(=O)N2[C@@H]3CC[C@@H]2CN(c2ncnc4[nH]ccc24)C3)c1; < 100 nM
N#Cc1cccc(CC(=O)N2[C@@H]3CC[C@@H]2CN(c2ncnc4[nH]ccc24)C3)c1; 100 to 500 nM
O=C(c1cc2cc(F)cc(F)c2[nH]1)N1C2CCC1CN(c1ncnc3[nH]ccc13)C2; < 100 nM
CC(C)(C)OC(=O)N1CCN(c2ncnc3[nH]ccc23)CC12CC2; < 100 nM

-- ask Hi! What's the reported EC50 for `O=C(Cc1c[nH]c2ccccc12)N1[C@@H]2CC[C@@H]1CN(c1ncnc3[nH]ccc13)C2` on JAK2 (catalytic domain, His-tag) (Homo sapiens)?
-- reply 100 to 500 nM

-- ask Thanks! And `NS(=O)(=O)c1ccc(C(=O)N2CCN(c3ncnc4[nH]ccc34)CC23CC3)o1` ?
-- reply < 100 nM

-- ask Thanks! And `COC(=O)c1cc2c(N3CCN(C(=O)Cc4cccc(C#N)c4)C4(CC4)C3)ncnc2[nH]1` ?
-- reply > 500 nM

-- ask Thanks! And `O=C([C@H]1CC[C@H](O)CC1)N1CCN(c2ncnc3[nH]ccc23)CC12CC2` ?
-- reply < 100 nM

-- ask Thanks! And `O=C(c1cc2ccccc2s1)N1CCN(c2ncnc3[nH]ccc23)CC12CC2` ?
-- reply < 100 nM

-- ask Thanks! And `O=C(c1cccc(C(F)(F)F)c1)N1CCN(c2ncnc3[nH]ccc23)CC12CC2` ?
-- reply < 100 nM

-- ask Thanks! And `CS(=O)(=O)CCC(=O)N1CCN(c2ncnc3[nH]ccc23)CC12CC2` ?
-- reply < 100 nM

----------
In this section we review reported EC50 values for a set of compounds.
molecular target: TYK2 (aa 871-1187, catalytic domain, GST-tag) (Homo sapiens); construct: JAK1 (aa 850-1154) and TYK2 (aa 871-1187) are expressed with an N-terminally fused GST-tag; GST (N); purchased Carna Biosciences, Inc; host or cells: baculovirus expression system; experiment: JAK kinase assay (HTRF, phosphorylation of TK substrate-biotin), TYK2; type: biochemical; details: HTRF assay, ATP at Km (13 μM); read-out: TYK2 kinase inhibitory activity (EC50 indicator)

Solved cases below.
O=C(c1csc2ccccc12)N1[C@H]2CC[C@H]1CN(c1ncnc3[nH]ccc13)C2; 0.1 to 0.5 µM
O=C(c1ccc(OC(F)(F)F)cc1)N1[C@@H]2CC[C@@H]1CN(c1ncnc3[nH]ccc13)C2; > 0.5 µM
O=C(c1ccc(S(=O)(=O)NCC2CCCO2)cc1)N1CCN(c2ncnc3[nH]ccc23)CC12CC2 (centres unmarked); 0.1 to 0.5 µM
CS(=O)(=O)c1ccc(C(=O)N2CCN(c3ncnc4[nH]ccc34)CC23CC3)cc1F; 0.1 to 0.5 µM
N#Cc1ccc(C(=O)N2CCN(c3ncnc4[nH]ccc34)CC23CC3)cc1F; 0.1 to 0.5 µM

-- ask Using the record for `Cc1ccc(C(=O)N2CCN(c3ccnc4[nH]ccc34)CC23CC3)s1` , report its EC50.
-- reply 0.1 to 0.5 µM

-- ask Thanks! And `CC(C)(C)OC(=O)NCCNS(=O)(=O)c1ccc(C(=O)N2CCN(c3ncnc4[nH]ccc34)CC23CC3)cc1` ?
-- reply 0.1 to 0.5 µM

-- ask Thanks! And `O=C(c1cnccn1)N1CCN(c2ncnc3[nH]cc(Cl)c23)CC12CC2` ?
-- reply > 0.5 µM

----------
biological target: JAK3 (catalytic domain, His-tag) (Homo sapiens); construct: All four purified enzymes contain only the catalytic domain; His (N); purchased Carna Biosciences, Inc; host or cells: baculovirus expression system; assay: JAK kinase assay (HTRF, phosphorylation of TK substrate-biotin), JAK3; assay type: biochemical; details: HTRF assay, ATP at Km (2 μM); read-out: JAK3 kinase inhibitory activity (EC50 indicator)
Sequence (P52333 822-1111 limits assumed): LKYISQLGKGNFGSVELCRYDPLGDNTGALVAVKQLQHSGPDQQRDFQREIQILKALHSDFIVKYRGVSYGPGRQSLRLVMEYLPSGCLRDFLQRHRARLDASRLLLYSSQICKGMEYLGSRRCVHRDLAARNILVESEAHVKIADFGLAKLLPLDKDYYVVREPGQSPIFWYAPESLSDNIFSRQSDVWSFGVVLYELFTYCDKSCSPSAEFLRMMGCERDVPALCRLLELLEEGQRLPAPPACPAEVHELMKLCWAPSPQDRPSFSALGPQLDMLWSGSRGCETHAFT
In this section we review reported EC50 values for a set of compounds.

Solved cases below.
O=C(c1cnccn1)N1CCN(c2ccnc3[nH]ccc23)CC12CC2; > 500 nM
Nc1nc(N2CCN(C(=O)Cc3ccc(C(F)(F)F)cc3)C3(CC3)C2)c2cc[nH]c2n1; < 100 nM
Cc1c[nH]c2ncnc(N3CCN(C(=O)Cc4ccc(F)cc4)C4(CC4)C3)c12; 100 to 500 nM
O=C(c1cccc2cc(O)ccc12)N1[C@@H]2CC[C@@H]1CN(c1ncnc3[nH]ccc13)C2; < 100 nM
O=C(c1ccncc1)N1[C@@H]2CC[C@@H]1CN(c1ncnc3[nH]ccc13)C2; 100 to 500 nM

-- ask Using the record for `N#Cc1ccc(C(=O)N2C[C@@H]3C[C@H]2CN3c2ncnc3[nH]ccc23)cc1` , report its EC50.
-- reply > 500 nM

-- ask Thanks! And `NS(=O)(=O)c1ccc(C(=O)NCC(=O)N2CCN(c3ncnc4[nH]ccc34)CC23CC3)cc1` ?
-- reply < 100 nM

-- ask Thanks! And `NS(=O)(=O)c1ccc(SCC(=O)N2CCN(c3ncnc4[nH]ccc34)CC23CC3)cc1` ?
-- reply < 100 nM

-- ask Thanks! And `NS(=O)(=O)c1ccc(OCC(=O)N2CCN(c3ncnc4[nH]ccc34)CC23CC3)cc1` ?
-- reply < 100 nM

-- ask Thanks! And `N#Cc1ccc(C(=O)N2CCN(c3nc(N)nc4[nH]ccc34)CC23CC3)cc1` ?
-- reply 100 to 500 nM

----------
In this section we review reported pEC50 values for a set of molecules.
biological target: JAK2 (catalytic domain, His-tag) (Homo sapiens); construct: All four purified enzymes contain only the catalytic domain; His (N); purchased Carna Biosciences, Inc; host or cells: baculovirus expression system; experiment: JAK kinase assay (HTRF, phosphorylation of TK substrate-biotin), JAK2; assay type: biochemical; settings: HTRF assay, ATP at Km (4 μM); read-out: JAK2 kinase inhibitory activity (EC50 indicator)
pEC50: −log10 of the molar value.

Solved cases below.
CCCNS(=O)(=O)c1ccc(C(=O)N2CCN(c3ncnc4[nH]ccc34)CC23CC3)cc1 [Example 377]; > 7.00
O=C(c1cc2ccccc2[nH]1)N1[C@@H]2CC[C@H]1CN(c1ncnc3[nH]ccc13)C2 [Example 348]; > 7.00
O=C(c1cnccn1)N1CCN(c2ncnc3[nH]cc(Cl)c23)CC12CC2 [Example 314]; 6.30 to 7.00
CCS(=O)(=O)Nc1ccc(C(=O)N2CCN(c3ncnc4[nH]ccc34)CC23CC3)cc1 [Example 210]; > 7.00
N#CCCC(=O)N1CCN(c2nc(N)nc3[nH]ccc23)CC12CC2 [Example 313]; > 7.00

-- ask Using the record for COc1cnc2[nH]ccc2c1N1CCN(C(=O)c2ccc(C#N)c(F)c2)C2(CC2)C1 [Example 292] , report its pEC50.
-- reply 6.30 to 7.00

-- ask Thanks! And N#CCc1ccc(CC(=O)N2CCN(c3ncnc4[nH]cc(Cl)c34)CC23CC3)cc1 [Example 319] ?
-- reply 6.30 to 7.00

-- ask Thanks! And Nc1nc(N2CCN(C(=O)c3cnccn3)C3(CC3)C2)c2cc[nH]c2n1 [Example 302] ?
-- reply > 7.00

-- ask Thanks! And O=C(Cc1ccc(F)cc1)N1CCN(c2ncnc3[nH]cc(Cl)c23)CC12CC2 [Example 320] ?
-- reply > 7.00

----------
Target: TYK2 (aa 871-1187, catalytic domain, GST-tag) (Homo sapiens, UniProt P29597)
Construct: JAK1 (aa 850-1154) and TYK2 (aa 871-1187) are expressed with an N-terminally fused GST-tag; GST (N); purchased Carna Biosciences, Inc; host or cells: baculovirus expression system
Sequence (P29597 871-1187): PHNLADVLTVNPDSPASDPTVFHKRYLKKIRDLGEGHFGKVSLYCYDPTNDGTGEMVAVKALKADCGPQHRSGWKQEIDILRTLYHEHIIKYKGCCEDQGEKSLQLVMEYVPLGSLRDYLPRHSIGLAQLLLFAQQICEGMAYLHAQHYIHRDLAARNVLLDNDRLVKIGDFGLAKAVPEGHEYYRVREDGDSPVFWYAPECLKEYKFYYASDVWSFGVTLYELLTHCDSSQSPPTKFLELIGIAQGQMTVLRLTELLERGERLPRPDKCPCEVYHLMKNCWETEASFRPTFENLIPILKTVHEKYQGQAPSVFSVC
Experiment: JAK kinase assay (HTRF, phosphorylation of TK substrate-biotin), TYK2
Assay type: biochemical
Conditions: ATP at Km (13 μM); read-out: TYK2 kinase inhibitory activity (EC50 indicator)
testReadout: EC50

-- ask Using the record for `CS(=O)(=O)c1ccc(CC(=O)N2CCN(c3ncnc4[nH]ccc34)CC23CC3)cc1` , report its EC50.
-- reply > 500 nM

-- ask Thanks! And `S=C(NCc1ccccc1)N1[C@@H]2CC[C@H]1CN(c1ncnc3[nH]ccc13)C2` ?
-- reply > 500 nM

-- ask Thanks! And `N#CCc1ccc(C(=O)N2[C@@H]3CC[C@@H]2CN(c2ncnc4[nH]ccc24)C3)cc1` ?
-- reply > 500 nM

-- ask Thanks! And `N#Cc1ccccc1CC(=O)N1CCN(c2ncnc3[nH]ccc23)CC12CC2` ?
-- reply > 500 nM

-- ask Thanks! And `CC(C)S(=O)(=O)c1ccc(C(=O)N2CCN(c3ncnc4[nH]ccc34)CC23CC3)cc1` ?
-- reply > 500 nM

-- ask Thanks! And `N#Cc1csc(C(=O)N2CCN(c3ncnc4[nH]ccc34)CC23CC3)c1` ?
-- reply < 100 nM

-- ask Thanks! And `O=C(c1cc2c(s1)CCC2)N1CCN(c2ncnc3[nH]ccc23)CC12CC2` ?
-- reply < 100 nM

-- ask Thanks! And `Cc1cnc(C(=O)N2[C@@H]3CC[C@H]2CN(c2ncnc4[nH]ccc24)C3)cn1` ?
-- reply > 500 nM

Value source: patent US9346809B2
